# Target under test: human Ddi1 (Homo sapiens)
# Sequence (Q8WTU0 whole entry): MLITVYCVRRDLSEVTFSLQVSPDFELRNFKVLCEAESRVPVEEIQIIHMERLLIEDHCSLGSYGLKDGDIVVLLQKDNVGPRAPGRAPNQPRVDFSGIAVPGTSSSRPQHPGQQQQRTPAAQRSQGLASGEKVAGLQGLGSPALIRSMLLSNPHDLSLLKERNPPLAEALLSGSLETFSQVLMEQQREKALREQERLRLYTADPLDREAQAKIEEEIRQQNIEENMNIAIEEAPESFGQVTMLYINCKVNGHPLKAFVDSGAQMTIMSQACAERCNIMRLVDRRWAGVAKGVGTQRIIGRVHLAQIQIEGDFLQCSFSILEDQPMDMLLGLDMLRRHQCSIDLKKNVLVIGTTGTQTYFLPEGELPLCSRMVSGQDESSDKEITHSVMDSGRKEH
# Experiment summary: Proteinase inhibitor assay
# Assay type: cell-based
# Test conditions: read-out: Y16141 human, Inhibition at 25 μM (%)
Measure name: inhibition at 25 µM (%)
API: value field is a number in %; no unit string.

CC(C)CN(C[C@@H](O)[C@H](Cc1ccccc1)NC(=O)O[C@H]1CCOC1)S(=O)(=O)c1ccc(N)cc1 [Amprenavir]
9
CCC[C@@]1(CCc2ccccc2)CC(O)=C([C@H](CC)c2cccc(NS(=O)(=O)c3ccc(C(F)(F)F)cn3)c2)C(=O)O1 [Tipranavir]
90
Cc1cccc(C)c1OCC(=O)N[C@@H](Cc1ccccc1)[C@@H](O)C[C@H](Cc1ccccc1)NC(=O)[C@H](C(C)C)N1CCCNC1=O [Lopinavir]
0

Could you now consider this next compound?
In: Param item = CC(C)c1nc(CN(C)C(=O)N[C@H](C(=O)N[C@@H](Cc2ccccc2)C[C@H](O)[C@H](Cc2ccccc2)NC(=O)OCc2cncs2)C(C)C)cs1 [Ritonavir] ; retrieve measured inhibition at 25 µM.
Out: 3
